# Assay target: Vascular endothelial growth factor receptor 1 (Homo sapiens); also: in other assays of this panel Not Active means under 50% inhibition at 10 µM
# Sequence (P17948 whole entry): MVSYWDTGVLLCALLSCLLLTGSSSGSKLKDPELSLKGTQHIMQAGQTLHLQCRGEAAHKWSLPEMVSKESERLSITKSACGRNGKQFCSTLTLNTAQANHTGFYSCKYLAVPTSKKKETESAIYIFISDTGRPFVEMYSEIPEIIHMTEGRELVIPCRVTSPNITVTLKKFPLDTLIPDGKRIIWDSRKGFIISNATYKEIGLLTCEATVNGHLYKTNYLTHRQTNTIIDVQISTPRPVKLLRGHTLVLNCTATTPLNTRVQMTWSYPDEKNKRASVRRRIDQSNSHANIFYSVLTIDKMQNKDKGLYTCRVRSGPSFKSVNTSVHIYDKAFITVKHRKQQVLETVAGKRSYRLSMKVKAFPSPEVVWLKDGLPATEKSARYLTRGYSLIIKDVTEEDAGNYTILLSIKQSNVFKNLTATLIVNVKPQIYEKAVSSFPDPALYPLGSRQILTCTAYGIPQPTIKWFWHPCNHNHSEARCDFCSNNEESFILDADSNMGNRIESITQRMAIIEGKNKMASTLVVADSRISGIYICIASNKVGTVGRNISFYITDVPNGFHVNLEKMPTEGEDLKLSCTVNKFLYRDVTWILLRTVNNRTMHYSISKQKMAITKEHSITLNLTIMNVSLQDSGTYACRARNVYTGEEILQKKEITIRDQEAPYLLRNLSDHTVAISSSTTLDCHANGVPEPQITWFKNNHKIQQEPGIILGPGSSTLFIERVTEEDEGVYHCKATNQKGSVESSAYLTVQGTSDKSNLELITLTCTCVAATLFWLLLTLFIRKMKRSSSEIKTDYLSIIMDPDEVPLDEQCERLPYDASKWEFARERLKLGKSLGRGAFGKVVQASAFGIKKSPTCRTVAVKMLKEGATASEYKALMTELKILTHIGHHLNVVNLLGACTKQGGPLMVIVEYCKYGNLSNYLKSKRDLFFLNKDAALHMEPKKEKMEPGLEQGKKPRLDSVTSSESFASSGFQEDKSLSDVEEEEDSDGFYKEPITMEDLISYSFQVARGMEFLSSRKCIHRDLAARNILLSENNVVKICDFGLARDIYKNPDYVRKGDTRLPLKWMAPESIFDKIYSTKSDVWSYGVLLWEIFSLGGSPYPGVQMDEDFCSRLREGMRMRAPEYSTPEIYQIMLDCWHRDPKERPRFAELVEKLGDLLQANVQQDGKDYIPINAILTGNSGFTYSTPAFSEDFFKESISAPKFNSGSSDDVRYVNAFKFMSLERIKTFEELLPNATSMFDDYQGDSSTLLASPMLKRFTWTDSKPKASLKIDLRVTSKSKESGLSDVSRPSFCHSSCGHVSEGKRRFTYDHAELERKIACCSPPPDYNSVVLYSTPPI
# Format: cell-based
# Condition label: huvec
Readout: IC50

COC(=O)[C@@H]1[C@H]2C[C@H]3c4[nH]c5ccccc5c4CCN3C[C@@H]2CC[C@@H]1O
Not Active
CC(=O)[C@H]1CC[C@H]2[C@@H]3CCC4=CC(=O)CC[C@]4(C)[C@H]3CC[C@]12C
Not Active
Cc1ncc([N+](=O)[O-])n1CC(C)O (stereo not given)
Not Active
CSc1ccc2c(c1)N(CCC1CCCCN1C)c1ccccc1S2 (stereo not given)
Not Active

Task: Item: Cc1ccc(C(=O)C(C)CN2CCCCC2)cc1 (stereo not given) Test system: Vascular endothelial growth factor receptor 1 (Homo sapiens) Read-out: IC50 Value: ?; also: in other assays of this panel Not Active means under 50% inhibition at 10 µM
Result: Not Active

Task: Item: CCc1cccc2c3c([nH]c12)C(CC)(CC(=O)O)OCC3 (stereo not given) Test system: Vascular endothelial growth factor receptor 1 (Homo sapiens) Read-out: IC50 Value: ?; also: in other assays of this panel Not Active means under 50% inhibition at 10 µM
Result: Not Active

Task: Item: Cn1cnc([N+](=O)[O-])c1Sc1ncnc2nc[nH]c12 Test system: Vascular endothelial growth factor receptor 1 (Homo sapiens) Read-out: IC50 Value: ?; also: in other assays of this panel Not Active means under 50% inhibition at 10 µM
Result: Not Active

Task: Item: Nc1ccc(S(=O)(=O)Nc2ccnn2-c2ccccc2)cc1 Test system: Vascular endothelial growth factor receptor 1 (Homo sapiens) Read-out: IC50 Value: ?; also: in other assays of this panel Not Active means under 50% inhibition at 10 µM
Result: Not Active

Task: Item: Oc1cccc2cccnc12 Test system: Vascular endothelial growth factor receptor 1 (Homo sapiens) Read-out: IC50 Value: ?; also: in other assays of this panel Not Active means under 50% inhibition at 10 µM
Result: Not Active

Task: Item: COS(C)(=O)=O Test system: Vascular endothelial growth factor receptor 1 (Homo sapiens) Read-out: IC50 Value: ?; also: in other assays of this panel Not Active means under 50% inhibition at 10 µM
Result: Not Active

----------
# Assay target: Carbonic anhydrase 2 (Homo sapiens)
# Procedure summary: DRUGMATRIX: Carbonic Anhydrase II enzyme inhibition (substrate: 4-Nitrophenyl acetate (4-NPA))
# Type: tissue-based, Erythrocyte
# Condition label: erythrocyte; Not Active = under 50% inhibition at 10 µM
Readout: IC50

CC(=O)CCCCn1c(=O)c2c(ncn2C)n(C)c1=O [PENTOXIFYLLINE]
Not Active
COc1ccc(C(CN(C)C)C2(O)CCCCC2)cc1 (stereo unspecified) [VENLAFAXINE]
Not Active
CN1C(C(=O)Nc2ccccn2)=C(O)c2ccccc2S1(=O)=O [PIROXICAM]
Not Active
NNC(=O)c1ccncc1 [ISONIAZID]
Not Active
N=C(N)NCCCCNC(=N)N.O=S(=O)(O)O [ARCAINE SULFATE]
Not Active

Task: Recorded IC50 of CC1CN(c2cc3c(cc2F)c(=O)c(C(=O)O)cn3-c2ccc(F)cc2F)CCN1 (stereo unspecified) [TEMAFLOXACIN] , please.
Result: Not Active

----------
# Assay target: UniProt P05181
# Sequence (P05181 whole entry): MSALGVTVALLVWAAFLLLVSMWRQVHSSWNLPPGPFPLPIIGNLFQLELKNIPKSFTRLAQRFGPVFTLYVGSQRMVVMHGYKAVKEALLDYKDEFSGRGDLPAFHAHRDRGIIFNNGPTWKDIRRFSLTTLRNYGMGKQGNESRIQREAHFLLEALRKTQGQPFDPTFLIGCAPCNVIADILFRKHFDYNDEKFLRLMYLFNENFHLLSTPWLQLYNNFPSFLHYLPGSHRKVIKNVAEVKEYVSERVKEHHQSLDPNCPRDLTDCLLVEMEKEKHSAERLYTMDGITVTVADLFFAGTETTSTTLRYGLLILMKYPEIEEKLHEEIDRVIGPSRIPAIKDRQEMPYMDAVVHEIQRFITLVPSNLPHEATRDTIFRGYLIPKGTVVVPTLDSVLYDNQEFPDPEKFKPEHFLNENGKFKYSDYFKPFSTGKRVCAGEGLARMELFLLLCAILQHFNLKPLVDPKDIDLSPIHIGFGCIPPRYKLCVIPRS
# Condition label: bti-tn-5b1-4
Readout: IC50

COCc1c(C(C)C)nc(C(C)C)c(/C=C/[C@@H](O)C[C@@H](O)CC(=O)O)c1-c1ccc(F)cc1
Not Active
CO[C@@H]1[C@@H](O[C@@H]2O[C@H](C)[C@@H](O[C@H]3C[C@@](C)(O)[C@@H](OC(=O)CC(C)C)[C@H](C)O3)[C@H](N(C)C)[C@H]2O)[C@@H](CC=O)C[C@@H](C)[C@@H](O)/C=C/C=C/C[C@@H](C)OC(=O)C[C@H]1O
Not Active
Oc1cccc2cccnc12
Not Active

The values you see were collected from ChEMBL document CHEMBL1909046.
